# tested-target: Golgi-associated PDZ and coiled-coil motif-containing protein (Homo sapiens)
# assay-summary: untagged CAL PDZ binding inhibitors, primary screen, biochemical, fluorescence polarization, HTS (AID 602252)
# reported-conditions: purified CAL PDZ, TMR-peptide fluorescence polarization, 1 h; at 24.9 µM
About 2,700 (0.9%) of roughly 300,000 compounds were called active.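 How the source made its calls: active means mean inhibition of at least 30% with at least half of replicates also reaching 30%; inconclusive means no clear call, values can overlap the other calls; inactive means the rest.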 The full list was thinned out, with actives kept by preference.
// allowed return values: active, inactive

-- ask Tell me the recorded outcome of this test for "Cc1oc2nc(SCC(=O)NCc3cccnc3)nc(N)c2c1C" .
-- reply inactive

-- ask Tell me the recorded outcome of this test for "CCn1c(-c2ccncc2)n[nH]c1=S" .
-- reply inactive

-- ask Tell me the recorded outcome of this test for "CCCc1cc(-c2n[nH]c(=S)n2Cc2ccccc2)cs1" .
-- reply inactive

-- ask Tell me the recorded outcome of this test for "O=C(O)c1cnn2c(C(F)(F)F)cc(-c3ccccc3)nc12" .
-- reply inactive

-- ask Tell me the recorded outcome of this test for CCCCN1CC(COCc2ccccc2)OCCS1(=O)=O (stereo unspecified) .
-- reply inactive

-- ask Tell me the recorded outcome of this test for "O=C(Cn1cnc2cc([N+](=O)[O-])ccc2c1=O)NC(=O)NCc1ccccc1" .
-- reply active

-- ask Tell me the recorded outcome of this test for "Cc1cc(-c2nnc(SCC(=O)Nc3ccc(S(N)(=O)=O)cc3)n2N)n[nH]1" .
-- reply inactive

-- ask Tell me the recorded outcome of this test for "Cc1ccc(C(=O)NCCNC(=O)c2ccccc2)cc1" .
-- reply inactive

-- ask Tell me the recorded outcome of this test for CC(=O)OC1CCC2(C)C(=CCC3C4CC(=O)N(O)C(=O)C4(C)CCC32)C1 (stereo unspecified) .
-- reply inactive

-- ask Tell me the recorded outcome of this test for "O=C(O)C(=Cc1ccccc1[N+](=O)[O-])c1ccccc1" .
-- reply inactive

-- ask Tell me the recorded outcome of this test for "COc1ccc(CNC(=O)COc2ccccc2C(=O)c2cnn(-c3ccccc3)c2)cc1OC" .
-- reply inactive
